SYSTEM: Vibrio cholera ASADH (V. cholera ASADH), aspartate semialdehyde dehydrogenase
PROTOCOL_NOTES: Inactivation of the bacterial ASADH ortholog from Vibrio cholera by vinyl sulfones (comparison with the fungal enzyme)
SETTINGS: FIG. 6, irreversible covalent inactivators
pKi: −log10 of the molar value.
ATTRIBUTE_MEASURED: pKi

SMILES_DATA	SYSTEM	ATTRIBUTE_MEASURED	RESULT
CS(=O)(=O)/C=C/c1ccc(C(=O)O)cc1	Vibrio cholera ASADH (V. cholera ASADH), aspartate semialdehyde dehydrogenase	pKi	5.35
CS(=O)(=O)/C=C/c1ccccc1[N+](=O)[O-]	Vibrio cholera ASADH (V. cholera ASADH), aspartate semialdehyde dehydrogenase	pKi	5.59
CS(=O)(=O)/C=C/c1cccc([N+](=O)[O-])c1	Vibrio cholera ASADH (V. cholera ASADH), aspartate semialdehyde dehydrogenase	pKi	4.99
CS(=O)(=O)/C=C/c1ccc([N+](=O)[O-])cc1	Vibrio cholera ASADH (V. cholera ASADH), aspartate semialdehyde dehydrogenase	pKi	5.20
